test system: HiBiT-tagged HTT protein; experiment: HiBiT protein abundance assay, HTT (K562 HiBiT knock-in cells); format: cell-based, human; settings: 24 hours
Where a name gives a salt, the structure may show the parent alone.
Answer each item with its documented IC50.

Exercise: Name the recorded IC50 of the compound listed here: Cc1cn2cc(NC(=O)c3ccc(N4CC[C@@H](N)C4)c4ccnnc34)cc(F)c2n1 [Compound 270]
Key: 1000 to 10000 nM

Exercise: Name the recorded IC50 of the compound listed here: Cc1cnc2c(N3C[C@@H](C)N[C@@H](C)C3)ccc(C(=O)Nc3cc(F)c4nc(C)cn4c3)c2n1 [Compound 216]
Key: 1000 to 10000 nM

Exercise: Name the recorded IC50 of the compound listed here: COc1cn2cc(NC(=O)c3ccc(N4C[C@@H](C)N[C@@H](C)C4)c4nccnc34)cc(F)c2n1 [Compound 357]
Key: > 10000 nM

Exercise: Name the recorded IC50 of the compound listed here: Cc1cc2c(N3CCNCC3)ccc(C(=O)Nc3cc(F)c4nc(C)cn4c3)c2nn1 [Compound 159]
Key: 100 to 1000 nM

Exercise: Name the recorded IC50 of the compound listed here: Cc1cn2cc(NC(=O)c3ccc(N4CCN(CCF)C5(CC5)C4)c4nccnc34)cc(F)c2n1 [Compound 370]
Key: > 10000 nM

Exercise: Name the recorded IC50 of the compound listed here: Cc1cn2cc(NC(=O)c3ccc(N4CCNCC4)c4ccnnc34)cc(C(C)O)c2n1 (stereo not drawn) [Compound 182, trifluoroacetate]
Key: > 10000 nM

Exercise: Name the recorded IC50 of the compound listed here: Cc1cn2cc(NC(=O)c3ccc(N4CCNC5(CC5)C4)c4cccnc34)cc(F)c2n1 [Compound 341]
Key: 1000 to 10000 nM

Exercise: Name the recorded IC50 of the compound listed here: Cc1cn2c(C)c(NC(=O)c3ccc(N4C[C@@H](C)N[C@@H](C)C4)c4nccnc34)cc(F)c2n1 [Compound 285]
Key: 1000 to 10000 nM

Exercise: Name the recorded IC50 of the compound listed here: Cc1nc2c(F)cc(NC(=O)c3ccc(N4CCNCC4)c4ccnnc34)cc2s1 [Compound 118]
Key: 100 to 1000 nM

Exercise: Name the recorded IC50 of the compound listed here: Cc1cn2cc(NC(=O)c3ccc(N4C[C@@H](C)N[C@@H](C)C4)c4nccnc34)nc(C)c2n1 [Compound 288]
Key: 1000 to 10000 nM

Exercise: Name the recorded IC50 of the compound listed here: COc1nc(NC(=O)c2ccc(N3C[C@@H](C)N[C@@H](C)C3)c3nccnc23)cn2cc(C)nc12 [Compound 277]
Key: 100 to 1000 nM

Exercise: Name the recorded IC50 of the compound listed here: CN[C@H]1CCN(c2ccc(C(=O)Nc3cc(F)c4nc(C)cn4c3)c3nccnc23)C1 (single isomer, unassigned) [Compound 194]
Key: 1000 to 10000 nM

Exercise: Name the recorded IC50 of the compound listed here: CC[C@@H]1CN(c2ccc(C(=O)Nc3cc(F)c4nc(C)cn4c3)c3nnccc23)CCN1 [Compound 151]
Key: 1000 to 10000 nM

Exercise: Name the recorded IC50 of the compound listed here: C[C@@H]1CN(c2ccc(C(=O)Nc3cc(F)c4nn(C)cc4c3)c3nccnc23)C[C@@H](C)N1 [Compound 335]
Key: 1000 to 10000 nM

Exercise: Name the recorded IC50 of the compound listed here: Cc1cn2cc(NC(=O)c3ccc(N4CCC(NC(C)(C)C)C4)c4ccnnc34)cc(F)c2n1 (stereo not drawn) [Compound 109]
Key: 1000 to 10000 nM
